Assay: Cell survival against human breast cancer MCF7 cell line after 72h at 10 uM
Assay type: ADME, cell-based
Conditions: MCF7 breast cancer cells, read-out: Activity
observationType: viability at 72 h, 10 µM (%)
Give the value in % but do not write % after it.

moleculeSmiles	endpointUnit	reportedMeasurement
CC/C(=C(\c1ccccc1)c1ccc(OCCN(C)C)cc1)c1ccccc1	%	72

Req: Using the record for O=c1[nH]cc(F)c(=O)[nH]1 , state its measured viability at 72 h, 10 µM.
Resp: 40
